Examples of binders with documented EC50 hC3 cleavage follow.
- test_target: plasma purified human complement protein C3 (human) (UniProt P01024)
- Sequence (P01024 23-667, chain 1 of 2): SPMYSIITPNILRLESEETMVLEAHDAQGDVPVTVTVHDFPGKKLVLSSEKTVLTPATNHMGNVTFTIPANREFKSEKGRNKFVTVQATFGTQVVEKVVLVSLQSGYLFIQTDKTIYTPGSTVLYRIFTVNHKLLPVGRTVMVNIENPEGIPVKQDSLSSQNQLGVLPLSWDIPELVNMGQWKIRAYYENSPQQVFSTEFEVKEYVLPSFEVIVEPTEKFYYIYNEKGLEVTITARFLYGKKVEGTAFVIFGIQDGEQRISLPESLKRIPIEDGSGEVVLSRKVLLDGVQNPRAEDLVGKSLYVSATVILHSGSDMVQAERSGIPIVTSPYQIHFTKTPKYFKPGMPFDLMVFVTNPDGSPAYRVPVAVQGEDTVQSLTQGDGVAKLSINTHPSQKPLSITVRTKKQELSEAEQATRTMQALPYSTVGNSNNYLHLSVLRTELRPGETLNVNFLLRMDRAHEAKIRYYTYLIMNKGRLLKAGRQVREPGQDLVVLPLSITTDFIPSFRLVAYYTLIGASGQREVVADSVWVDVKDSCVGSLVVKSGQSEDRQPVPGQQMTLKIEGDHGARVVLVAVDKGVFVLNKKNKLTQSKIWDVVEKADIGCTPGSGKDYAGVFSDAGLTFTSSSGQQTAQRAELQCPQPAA
- Sequence (P01024 672-1663, chain 2 of 2): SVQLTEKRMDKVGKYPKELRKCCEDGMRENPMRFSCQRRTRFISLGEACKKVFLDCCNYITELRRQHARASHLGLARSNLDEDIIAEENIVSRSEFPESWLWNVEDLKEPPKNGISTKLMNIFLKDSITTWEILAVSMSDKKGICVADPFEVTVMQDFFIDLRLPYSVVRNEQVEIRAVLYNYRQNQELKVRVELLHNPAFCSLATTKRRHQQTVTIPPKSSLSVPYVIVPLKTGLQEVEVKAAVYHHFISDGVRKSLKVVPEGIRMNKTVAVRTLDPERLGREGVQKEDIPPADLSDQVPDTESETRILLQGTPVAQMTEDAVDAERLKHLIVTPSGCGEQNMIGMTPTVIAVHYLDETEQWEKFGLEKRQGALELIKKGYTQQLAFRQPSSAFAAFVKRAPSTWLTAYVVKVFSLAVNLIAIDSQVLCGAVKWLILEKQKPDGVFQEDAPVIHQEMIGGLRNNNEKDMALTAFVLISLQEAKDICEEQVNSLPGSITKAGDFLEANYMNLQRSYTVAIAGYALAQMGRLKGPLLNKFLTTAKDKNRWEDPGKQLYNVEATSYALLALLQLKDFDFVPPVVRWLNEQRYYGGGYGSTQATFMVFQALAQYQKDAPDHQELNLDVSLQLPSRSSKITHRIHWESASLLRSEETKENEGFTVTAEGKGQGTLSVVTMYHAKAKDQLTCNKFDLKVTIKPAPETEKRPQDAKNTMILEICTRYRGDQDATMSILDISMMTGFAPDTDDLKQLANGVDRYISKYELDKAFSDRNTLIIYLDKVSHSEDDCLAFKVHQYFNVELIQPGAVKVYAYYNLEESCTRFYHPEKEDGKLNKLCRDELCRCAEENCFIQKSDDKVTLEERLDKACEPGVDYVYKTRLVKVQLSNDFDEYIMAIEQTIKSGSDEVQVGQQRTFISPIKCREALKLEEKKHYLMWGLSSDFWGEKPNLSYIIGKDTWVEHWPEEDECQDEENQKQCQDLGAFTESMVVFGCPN
- assay_comment: cell-based or functional assay
Write down the numeric answer in nM and omit the unit.

Example cases with answers are listed next.
Request: EC50 hC3 cleavage for MTSP-1 protease domain I41D/F97T/F99L/C122S/G151N/Q192T (enzyme) VVGGTDADEGEWPWQVSLHALGQGHDCGASLISPNWLVSAAHCYIDDRGFRYSDPTQWTAFLGLHDQSQRSAPGVQERRLKRIISHPFFNDTTLDYDIALLELEKPAEYSSMVRPISLPDASHVFPAGKAIWVTGWGHTQYGGTNALILQKGEIRVINQTTCENLLPQQITPRMMCVGFLSGGVDSCTGDSGGPLSSVEADGRIFQAGVVSWGDGCAQRNKPGVYTRLPLFRDWIKENTGV ?
Response: 84.3

Request: Can you check MTSP-1 protease domain I41S/Y59F/D60bY/ins97aV/C122S/Q192G (enzyme) VVGGTDADEGEWPWQVSLHALGQGHSCGASLISPNWLVSAAHCFIDYRGFRYSDPTQWTAFLGLHDQSQRSAPGVQERRLKRIISHPFFNDFVTFDYDIALLELEKPAEYSSMVRPISLPDASHVFPAGKAIWVTGWGHTQYGGTGALILQKGEIRVINQTTCENLLPQQITPRMMCVGFLSGGVDSCGGDSGGPLSSVEADGRIFQAGVVSWGDGCAQRNKPGVYTRLPLFRDWIKENTGV next?
Response: 5.24

Request: Try MTSP-1 protease domain Q38H/I41S/D96S/ins97aK/C122S/G151N/Q192A (enzyme) VVGGTDADEGEWPWQVSLHALGHGHSCGASLISPNWLVSAAHCYIDDRGFRYSDPTQWTAFLGLHDQSQRSAPGVQERRLKRIISHPFFNSFKTFDYDIALLELEKPAEYSSMVRPISLPDASHVFPAGKAIWVTGWGHTQYGGTNALILQKGEIRVINQTTCENLLPQQITPRMMCVGFLSGGVDSCAGDSGGPLSSVEADGRIFQAGVVSWGDGCAQRNKPGVYTRLPLFRDWIKENTGV next.
Response: 16.7

Request: Thanks! And MTSP-1 protease domain I41E/F99L/C122S/Q175G/Q192T (enzyme) VVGGTDADEGEWPWQVSLHALGQGHECGASLISPNWLVSAAHCYIDDRGFRYSDPTQWTAFLGLHDQSQRSAPGVQERRLKRIISHPFFNDFTLDYDIALLELEKPAEYSSMVRPISLPDASHVFPAGKAIWVTGWGHTQYGGTGALILQKGEIRVINQTTCENLLPQGITPRMMCVGFLSGGVDSCTGDSGGPLSSVEADGRIFQAGVVSWGDGCAQRNKPGVYTRLPLFRDWIKENTGV ?
Response: 33.9

For the next question, use this binder.
Request: So what's the measured EC50 hC3 cleavage for this one? MTSP-1 protease domain Q38H/I41S/D60bT/F60eS/Y60gW/D96K/ins97aV/F97G/T98P/F99L/C122S/G151H/Q175L/Q192D (enzyme) VVGGTDADEGEWPWQVSLHALGHGHSCGASLISPNWLVSAAHCYIDTRGSRWSDPTQWTAFLGLHDQSQRSAPGVQERRLKRIISHPFFNKGVPLDYDIALLELEKPAEYSSMVRPISLPDASHVFPAGKAIWVTGWGHTQYGGTHALILQKGEIRVINQTTCENLLPQLITPRMMCVGFLSGGVDSCDGDSGGPLSSVEADGRIFQAGVVSWGDGCAQRNKPGVYTRLPLFRDWIKENTGV
Response: 6.86
